Molecular target: T1, RSV N-RNA complex (full-length N protein in ring-shaped complexes with bacterial RNA) (human respiratory syncytial virus, UniProt P03418 1-391)
T1 construct: human RSV nucleoprotein N, full length; concentrations are of N protomer; also called N-RNA rings; source: in lysate for the co-purification; purified (glutathione-Sepharose, thrombin, Superdex 200) as N-RNA complex; copies: 10-11
T1 sequence (looked up): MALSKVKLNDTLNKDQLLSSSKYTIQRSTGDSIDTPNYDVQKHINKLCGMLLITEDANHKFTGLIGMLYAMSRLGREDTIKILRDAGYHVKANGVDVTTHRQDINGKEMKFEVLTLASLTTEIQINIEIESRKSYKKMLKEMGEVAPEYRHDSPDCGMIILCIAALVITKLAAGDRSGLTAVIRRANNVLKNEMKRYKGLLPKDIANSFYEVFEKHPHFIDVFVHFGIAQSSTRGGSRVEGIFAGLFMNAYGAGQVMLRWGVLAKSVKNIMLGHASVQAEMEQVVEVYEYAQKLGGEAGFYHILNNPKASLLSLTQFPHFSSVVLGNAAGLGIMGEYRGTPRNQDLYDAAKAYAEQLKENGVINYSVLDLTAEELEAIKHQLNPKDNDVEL
Experiment: fluorescence polarisation; competition: unlabeled P7E varied against 200 nM F7E on 10 µM N-RNA; Tris pH 8 without salt; Hill equation; Ki from the IC50-to-Ki server
Conditions: both partners purified
Measurement Name: IC50 (µM)
Numeric answer only, unit µM assumed.

# IC50 of DLELEDF (unlabeled peptide from which F7E was made; C-terminal 7 residues of RSV phosphoprotein P; source: synthetic peptide (Fmoc/tBu solid phase, RP-HPLC purified)) [P7E (unlabeled RSV P 7-mer, Ser237Glu)] = 376
